- Tested on: HCT-116
- TEST METHOD NOTES: Cytotoxicity against human HCT116 cells at 20 uM
- Format: cell-based
- MEASUREMENT CONDITIONS: hct-116, 20 µM
Lab note: class by Activity, see class 0 = under 10%, class 1 = from 10% up to 30%, class 2 = 30% and over

Past entries and their recorded results:
[[record]]
line_notation = "Cc1cc(C)nc(SCc2nnc(SCC(=O)NNC(=O)c3ccccc3O)n2C)n1"
subject_of_test = "HCT-116"
category = "class 1"

[[record]]
line_notation = "Cn1c(SCC(=O)NNC(=O)c2ccccc2O)nnc1-c1ccccc1"
subject_of_test = "HCT-116"
category = "class 2"

[[record]]
line_notation = "O=C(CSc1nnnn1-c1ccccc1)NNC(=O)c1ccc(O)cc1O"
subject_of_test = "HCT-116"
category = "class 1"

[[record]]
line_notation = "O=C(CSc1nnc(-c2ccc(Cl)cc2)n1-c1ccccc1)N/N=C/c1ccccc1C(=O)O"
subject_of_test = "HCT-116"
category = "class 0"

[[record]]
line_notation = "O=C(CSc1nnc(-c2ccccc2O)n1Cc1ccccc1)NNC(=O)c1ccccc1O"
subject_of_test = "HCT-116"
category = "class 0"


Please examine the following record next.
Task: Class label required: O=C(CSc1nnc(-c2ccccc2)n1Cc1ccccc1)NNC(=O)c1ccccc1O
Output: class 2
